# System: kochia
# Procedure details: Test E preemergence
# Format: in vivo, Kochia scoparia
# Experimental conditions: 125 g ai/ha, scale 0 to 100, 0 no effect, 100 complete control
Quantity: Plant response rating, Kochia
Hey, just send me the number, nothing else.

>>> print(df.to_string())
                              given_smiles                       quantity  measurement
0     N#Cc1cccc(Oc2ncc(F)cn2)c1-n1cc(I)cn1  Plant response rating, Kochia          100
1  FC(F)(F)c1cnn(-c2ccccc2Oc2ncc(Cl)cn2)c1  Plant response rating, Kochia          100

Consider the compound `N#Cc1cnn(-c2c(C#N)cccc2Oc2ncc(F)cn2)c1` and give its measured Plant response rating, Kochia.
95

# Plant response rating, Kochia lookup, item `N#Cc1cccc(Oc2ncc(Cl)cn2)c1-n1cc(C(F)(F)F)cn1`
100

Quick check: Plant response rating, Kochia of `FC(F)(F)c1cnn(-c2c(Cl)cccc2Oc2ncc(Cl)cn2)c1` ?
90

====

# System: blackgrass
# Procedure details: Test C preemergence
# Type: in vivo, Alopecurus myosuroides
# Experimental conditions: 62 g ai/ha, preemergence; scale 0 (no effect) to 100 (complete control)
Quantity: Blackgrass plant response rating
Form: value (number only, do not type unit).

Consider the following illustrative entries.
                                   molecule  measurement
0  FC(F)(F)c1cnn(-c2ccccc2Oc2ncc(Cl)cn2)c1 [Compound 16]           90
1  FCc1cccc(Oc2ncc(F)cn2)c1-n1cc(C(F)(F)F)cn1 [Compound 118]           90

Quick one: Blackgrass plant response rating for CCOc1cnn(-c2c(C#N)cccc2Oc2ncc(F)cn2)c1 [Compound 89] ?
5

Look up Blackgrass plant response rating for this molecule: N#Cc1cccc(Oc2ncc(F)cn2)c1-n1cc(I)cn1 [Compound 86]
90

Suppose we examine the molecule N#Cc1cnn(-c2c(CF)cccc2Oc2ncc(F)cn2)c1 [Compound 151] ; what Blackgrass plant response rating value has been reported?
10

====

Listed here: items and their measured Plant response rating, Johnsongrass.
# Test system: johnsongrass
# Procedure details: Test C preemergence
# Format: in vivo, Sorghum halepense
# Experimental conditions: Preemergence, 62 g ai/ha; scale 0 to 100, 0 no effect, 100 complete control
Enter the number alone.

>>> df
                                   molecule                             quantity  measurement
0  N#Cc1cnn(-c2c(Oc3ncc(Cl)cn3)cccc2C(F)F)c1 [Compound 236]  Plant response rating, Johnsongrass           60
1  FCc1cccc(Oc2ncc(Cl)cn2)c1-n1cc(Cl)cn1 [Compound 250]  Plant response rating, Johnsongrass           35
2  Fc1cccc(Oc2ncc(Cl)cn2)c1-n1cc(OCC(F)(F)F)cn1 [Compound 270]  Plant response rating, Johnsongrass           40

// next item, Plant response rating, Johnsongrass requested
Would you mind telling me what Plant response rating, Johnsongrass value was observed for CCOc1cnn(-c2ccccc2Oc2ncc(Cl)cn2)c1 [Compound 187] ?
30

====

# Tested on: corn
# Procedure details: Test E preemergence
# Type: in vivo, Zea mays
# Experimental conditions: 16 g ai/ha, scale 0 to 100 (0 no effect, 100 complete control)
The entries below are paired with their reported Corn plant response rating.
Reply with just the number.

In [3]: df
Out[3]:
                                   compound  measurement
0  N#Cc1cccc(Oc2ncc(F)cn2)c1-n1cc(I)cn1 [Compound 86]            0

With those in mind, consider the next compound.
For the compound shown here, N#Cc1cccc(Oc2ncc(Br)cn2)c1-n1cc(I)cn1 [Compound 88] , give the reported Corn plant response rating.
0

====

# System: pigweed
# Procedure details: Test C postemergence
# Type: in vivo, Amaranthus retroflexus
# Experimental conditions: Postemergence, 31 g ai/ha; scale 0 to 100 (0 no effect, 100 complete control); 13 to 15 days
# Excerpt: […]
Measured Plant response rating, Pigweed accompanies every entry in the list below.
No unit in the answer, please; the number alone is enough.

These solved cases illustrate the format of a correct answer.
>>> df
                              given_smiles  measurement
0  FC(F)(F)c1cnn(-c2ccccc2Oc2ncc(Cl)cn2)c1           80
1    N#Cc1cccc(Oc2ncc(F)cn2)c1-n1cc(Cl)cn1           45
2    Clc1cnc(Oc2cccc(Br)c2-n2cc(Br)cn2)nc1           90

We next turn to a different molecule, shown below.
Reported Plant response rating, Pigweed, molecule `CCOc1cnn(-c2c(C#N)cccc2Oc2ncc(F)cn2)c1` : ____
35

====

# Test system: ducksalad
# Procedure details: Test C flooded paddy test
# Format: in vivo, Heteranthera limosa
# Experimental conditions: Flood, 62 g ai/ha; scale 0 to 100 (0 no effect, 100 complete control), 13 to 15 days
Quick rule for you: Plant response rating, Ducksalad at 40 or higher means Condition met, lower means Condition not met.

Previously resolved entries follow.
                               given_smiles     assigned_class
0     N#Cc1cccc(Oc2ncc(F)cn2)c1-n1cc(Br)cn1      Condition met
1  FC(F)c1cccc(Oc2ncc(Br)cn2)c1-n1cc(Br)cn1  Condition not met
2    CCOc1cnn(-c2c(C#N)cccc2Oc2ncc(F)cn2)c1  Condition not met
3  FC(F)c1cccc(Oc2ncc(Cl)cn2)c1-n1cc(Br)cn1      Condition met
4    Cc1ccc(Oc2ncc(Cl)cn2)c(-n2cc(Br)cn2)c1  Condition not met

Check the entry `Fc1cccc(Oc2ncc(Cl)cn2)c1-n1cc(I)cn1` : does Plant response rating, Ducksalad equal or exceed 40?
Condition met

API: above_or_equal(metric=Plant response rating, Ducksalad, cutoff=40) for item `Fc1cccc(Oc2ncc(Cl)cn2)c1-n1cc(OCC(F)(F)F)cn1`
Condition met

Reported Plant response rating, Ducksalad reaches at least 40 for `Clc1cnc(Oc2cccc(Br)c2-n2cc(Br)cn2)nc1` ?
Condition not met

====

# Test system: yellow nutsedge
# Procedure details: Test C preemergence
# Format: in vivo, Cyperus esculentus
# Experimental conditions: Preemergence, 31 g ai/ha; scale 0 to 100, 0 no effect, 100 complete control
# Excerpt: […]
Quantity: Plant response rating, Nutsedge, Yellow

Please review the following examples before continuing.
>>> print(df.to_string())
                               given_smiles                                 quantity  measurement
0     N#Cc1cccc(Oc2ncc(F)cn2)c1-n1cc(Cl)cn1  Plant response rating, Nutsedge, Yellow            0
1  FCc1cccc(Oc2ncc(F)cn2)c1-n1cc(C(F)(F)F)cn1  Plant response rating, Nutsedge, Yellow            5
2   Fc1cnc(Oc2cccc(C(F)F)c2-n2cc(Br)cn2)nc1  Plant response rating, Nutsedge, Yellow            5

Report Plant response rating, Nutsedge, Yellow for `N#Cc1cn(-c2c(Br)cccc2Oc2ncc(Cl)cn2)nn1` tested on yellow nutsedge.
5

Give yellow nutsedge Plant response rating, Nutsedge, Yellow for `FC(F)(F)c1cnn(-c2ccccc2Oc2ncc(Cl)cn2)c1`
15

Entry `Clc1cnc(Oc2cccc(Br)c2-n2cc(Br)nn2)nc1` , system yellow nutsedge: what Plant response rating, Nutsedge, Yellow was measured?
0

====

# System: yellow nutsedge
# Procedure details: Test C postemergence
# Format: in vivo, Cyperus esculentus
# Experimental conditions: Postemergence, 62 g ai/ha; scale 0 to 100 (0 no effect, 100 complete control)
Readings of Plant response rating, Nutsedge, Yellow for the listed compounds
The answer should be written as a number, with no unit following it.

Past entries and their recorded results:
>>> print(df.to_string())
                             given_smiles  measurement
0  N#Cc1cnn(-c2c(C#N)cccc2Oc2ncc(F)cn2)c1            5
1   Clc1cnc(Oc2cccc(Br)c2-n2cc(Br)nn2)nc1            5
2   Clc1cnc(Oc2cccc(Br)c2-n2cc(Br)cn2)nc1            5
3  N#Cc1cccc(Oc2ncc(Cl)cn2)c1-n1cnc(Br)c1            0

Next:
// Plant response rating, Nutsedge, Yellow lookup, key: `N#Cc1cccc(Oc2ncc(Br)cn2)c1-n1cc(I)cn1`
10

====

# System: velvetleaf
# Procedure details: Test E preemergence
# Format: in vivo, Abutilon theophrasti
# Experimental conditions: 62 g ai/ha, scale 0 to 100 (0 no effect, 100 complete control)
Quantity: Velvetleaf plant response rating
I only need the number, thanks.

Recorded results for 3 molecules are shown here.
>>> df
                               given_smiles  measurement
0   FC(F)(F)c1cnn(-c2ccccc2Oc2ncc(Cl)cn2)c1           85
1  FC(F)c1cccc(Oc2ncc(Cl)cn2)c1-n1cc(Br)cn1           25
2     FCc1cccc(Oc2ncc(Cl)cn2)c1-n1cc(Cl)cn1           75

# ---- query molecule ----
Would you kindly share the measured Velvetleaf plant response rating for `Clc1cnc(Oc2ccccc2-n2cc(Br)cn2)nc1` ?
98
